src = patent US7049314B2

# targetUnderTest: human serotonin transporters (Homo sapiens)
# Construct: expressed in transfected cells
# experimentDescription: Serotonin Transporter Binding Assay ([3H]-citalopram displacement, HEK-hSERT cell membranes)
# assayConditions: HEK-hSERT membranes, 1 nM [3H]-citalopram, 1 hr at 25° C.; read-out: SERT (binding Ki)
Recorded Ki values for a group of compounds are listed next.

[[record]]
compound = "CN(C)[C@H]1CC[C@@H](c2c[nH]c3ccc(C#N)cc23)C1"
outcomemeasure = "Ki"
measuredvalue = "< 1 nM"

[[record]]
compound = "N#Cc1ccc2[nH]cc(C3CCC(NCc4ccccc4)C3)c2c1 (stereo not drawn)"
outcomemeasure = "Ki"
measuredvalue = "1 to 10 nM"

[[record]]
compound = "CCn1cc([C@H]2CC[C@H](N(C)C)C2)c2cc(C#N)ccc21"
outcomemeasure = "Ki"
measuredvalue = "1 to 10 nM"

[[record]]
compound = "CCn1cc([C@H]2CC[C@@H](N(C)C)C2)c2cc(C#N)ccc21"
outcomemeasure = "Ki"
measuredvalue = "< 1 nM"

[[record]]
compound = "CCn1cc(C2CCC(N(C)C)C2)c2cc(C#N)ccc21 (stereo not drawn)"
outcomemeasure = "Ki"
measuredvalue = "< 1 nM"

[[record]]
compound = "CCN(CC)C1CCC(c2c[nH]c3ccc(C#N)cc23)C1 (stereo not drawn)"
outcomemeasure = "Ki"
measuredvalue = "1 to 10 nM"


# lookup: Ki of CN(C)[C@@H]1CC[C@H](c2c[nH]c3ccc(F)cc23)C1 < 1 nM

// next record CN(C)C1CCC(c2c[nH]c3ccc(F)cc23)C1 (stereo not drawn) < 1 nM

// next record Cn1cc(C2CCC(NCCc3ccccc3)C2)c2cc(C#N)ccc21 (stereo not drawn) 1 to 10 nM

====

# targetUnderTest: human norepinephrine transporters (Homo sapiens, UniProt P23975)
# Sequence (P23975 whole entry): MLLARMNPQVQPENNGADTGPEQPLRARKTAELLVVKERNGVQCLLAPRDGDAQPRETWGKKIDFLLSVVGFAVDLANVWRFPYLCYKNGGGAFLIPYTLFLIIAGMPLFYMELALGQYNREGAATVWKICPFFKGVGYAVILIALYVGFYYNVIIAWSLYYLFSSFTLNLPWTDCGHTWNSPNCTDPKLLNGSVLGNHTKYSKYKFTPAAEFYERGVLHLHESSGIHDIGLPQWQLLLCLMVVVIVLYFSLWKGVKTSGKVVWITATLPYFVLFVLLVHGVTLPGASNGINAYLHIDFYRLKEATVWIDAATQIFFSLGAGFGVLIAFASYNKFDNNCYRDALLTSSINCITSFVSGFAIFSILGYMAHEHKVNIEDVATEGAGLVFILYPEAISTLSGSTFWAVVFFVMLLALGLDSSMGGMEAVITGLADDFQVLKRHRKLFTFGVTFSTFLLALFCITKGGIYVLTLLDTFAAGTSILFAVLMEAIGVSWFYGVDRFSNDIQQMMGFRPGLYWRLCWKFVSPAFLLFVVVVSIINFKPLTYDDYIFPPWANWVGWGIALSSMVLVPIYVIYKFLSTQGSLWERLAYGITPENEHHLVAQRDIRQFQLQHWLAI
# experimentDescription: Norepinephrine Transporter Binding Assay ([3H]-nisoxetine displacement, hNET cell membranes)
# assayConditions: 2.7 nM [3H]-nisoxetine, 1 hr at 4° C., read-out: NE Reuptake (binding Ki)
outcomeMeasure: Ki

Some compounds with recorded Ki:
[[record]]
compound = "CCn1cc([C@H]2CC[C@@H](N(C)C)C2)c2cc(C#N)ccc21"
outcomemeasure = "Ki"
measuredvalue = "> 1000 nM"

[[record]]
compound = "CCn1cc([C@@H]2CC[C@@H](N(C)C)C2)c2cc(C#N)ccc21"
outcomemeasure = "Ki"
measuredvalue = "> 1000 nM"

[[record]]
compound = "CN(Cc1ccccc1)C1CCC(c2c[nH]c3ccc(C#N)cc23)C1 (stereo not drawn)"
outcomemeasure = "Ki"
measuredvalue = "100 to 1000 nM"

[[record]]
compound = "CCn1cc(C2CCC(N(C)Cc3ccccc3)C2)c2cc(C#N)ccc21 (stereo not drawn)"
outcomemeasure = "Ki"
measuredvalue = "> 1000 nM"


# lookup: Ki of CCCN(CCC)C1CCC(c2cn(C)c3ccc(C#N)cc23)C1 (stereo not drawn) > 1000 nM

// next record CN(Cc1ccccc1)C1CCC(c2cn(C)c3ccc(C#N)cc23)C1 (stereo not drawn) > 1000 nM

// next record Fc1ccc2[nH]cc(C3CCC(N4CCCC4)C3)c2c1 (stereo not drawn) > 1000 nM

// next record CCCN(CCC)C1CCC(c2c[nH]c3ccc(C#N)cc23)C1 (stereo not drawn) > 1000 nM

// next record CN(CCc1ccccc1)C1CCC(c2c[nH]c3ccc(C#N)cc23)C1 (stereo not drawn) 100 to 1000 nM

====

# targetUnderTest: human serotonin transporters (Homo sapiens, UniProt P31645)
# Construct: expressed in transfected cells
# Sequence (P31645 whole entry): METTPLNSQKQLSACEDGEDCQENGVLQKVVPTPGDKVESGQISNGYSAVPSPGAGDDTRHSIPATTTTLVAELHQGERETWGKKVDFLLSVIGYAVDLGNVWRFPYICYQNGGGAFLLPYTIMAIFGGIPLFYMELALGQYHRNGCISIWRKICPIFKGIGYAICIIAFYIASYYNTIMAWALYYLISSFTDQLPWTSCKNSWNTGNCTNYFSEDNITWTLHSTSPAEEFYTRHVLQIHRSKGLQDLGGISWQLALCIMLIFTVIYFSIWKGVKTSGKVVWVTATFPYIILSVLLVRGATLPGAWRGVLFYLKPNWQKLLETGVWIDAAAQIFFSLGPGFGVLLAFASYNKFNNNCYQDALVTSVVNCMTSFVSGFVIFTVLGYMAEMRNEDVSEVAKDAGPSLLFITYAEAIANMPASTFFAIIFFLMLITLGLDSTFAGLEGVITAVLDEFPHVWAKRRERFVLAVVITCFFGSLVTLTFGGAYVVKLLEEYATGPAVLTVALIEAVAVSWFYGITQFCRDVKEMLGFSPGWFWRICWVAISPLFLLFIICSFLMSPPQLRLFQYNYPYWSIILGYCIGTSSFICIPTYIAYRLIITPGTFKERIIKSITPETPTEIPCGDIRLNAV
# experimentDescription: Serotonin Transporter Binding Assay ([3H]-citalopram displacement, HEK-hSERT cell membranes)
# assayConditions: HEK-hSERT membranes, 1 nM [3H]-citalopram, 1 hr at 25° C.; read-out: SERT (binding Ki)
Recorded Ki values for a group of compounds are listed next.

Some compounds with recorded Ki:
[[record]]
compound = "CN(C)[C@H]1CC[C@H](c2c[nH]c3ccc(C#N)cc23)C1"
outcomemeasure = "Ki"
measuredvalue = "< 1 nM"

[[record]]
compound = "CN(C)C1CCC(c2c[nH]c3cccc(Br)c23)C1 (stereo not shown)"
outcomemeasure = "Ki"
measuredvalue = "1 to 10 nM"


# lookup: Ki of CN(C)C1CCC(c2c[nH]c3ccc(I)cc23)C1 (stereo not shown) 10 to 100 nM

// next record CN(C)C1CCC(c2c[nH]c3cc(Cl)ccc23)C1 (stereo not shown) 1 to 10 nM

// next record CN(Cc1ccccc1)C1CCC(c2c[nH]c3ccc(C#N)cc23)C1 (stereo not shown) 1 to 10 nM

// next record Cn1cc(C2CCC(N3CCOCC3)C2)c2cc(C#N)ccc21 (stereo not shown) < 1 nM

// next record CN(C)C1CCC(c2c[nH]c3cc(Br)ccc23)C1 (stereo not shown) 1 to 10 nM

// next record Cn1cc(C2CCC(NCc3ccccc3)C2)c2cc(C#N)ccc21 (stereo not shown) 1 to 10 nM

// next record CN(C)[C@@H]1CC[C@@H](c2c[nH]c3ccc(F)cc23)C1 1 to 10 nM

// next record CN(C)C1CCC(c2c[nH]c3cc(F)ccc23)C1 (stereo not shown) 1 to 10 nM

====

# targetUnderTest: human serotonin transporters (Homo sapiens)
# Construct: expressed in transfected cells
# experimentDescription: Serotonin Transporter Binding Assay ([3H]-citalopram displacement, HEK-hSERT cell membranes)
pKi: −log10 of the molar value.
outcomeMeasure: pKi

[[record]]
compound = "CCN(C)C1CCC(c2cn(C)c3ccc(C#N)cc23)C1 (stereo not drawn) [Compound 22]"
outcomemeasure = "pKi"
measuredvalue = "8.00 to 9.00"

[[record]]
compound = "CCN(CC)C1CCC(c2c[nH]c3ccc(F)cc23)C1 (stereo not drawn) [Compound 35]"
outcomemeasure = "pKi"
measuredvalue = 8.30


# lookup: pKi of Fc1ccc2[nH]cc(C3CCC(N4CCCC4)C3)c2c1 (stereo not drawn) [Compound 36] 8.00 to 9.00

// next record CCCNC1CCC(c2cn(C)c3ccc(C#N)cc23)C1 (stereo not drawn) [Compound 29] > 9.00

// next record N#Cc1ccc2[nH]cc(C3CCC(N4CCCC4)C3)c2c1 (stereo not drawn) [Compound 6] 8.00 to 9.00

// next record N#Cc1ccc2[nH]cc(C3CCC(N4CCCCC4)C3)c2c1 (stereo not drawn) [Compound 14] > 9.00

====

# targetUnderTest: human serotonin transporters (Homo sapiens, UniProt P31645)
# Construct: expressed in transfected cells
# experimentDescription: Serotonin Transporter Binding Assay ([3H]-citalopram displacement, HEK-hSERT cell membranes)
# assayConditions: HEK-hSERT membranes, 1 nM [3H]-citalopram, 1 hr at 25° C.; read-out: SERT (binding Ki)
outcomeMeasure: Ki

# lookup: Ki of CN(C)[C@@H]1CC[C@H](c2c[nH]c3ccc(C#N)cc23)C1 < 1 nM

// next record CN(C)C1CCC(c2c[nH]c3ccc(C#N)cc23)C1 (stereo not drawn) < 1 nM

====

Recorded pKi values for a group of compounds are listed next.
# targetUnderTest: human serotonin transporters (Homo sapiens, UniProt P31645)
# Construct: expressed in transfected cells
# experimentDescription: Serotonin Transporter Binding Assay ([3H]-citalopram displacement, HEK-hSERT cell membranes)
# assayConditions: HEK-hSERT membranes, 1 nM [3H]-citalopram, 1 hr at 25° C.; read-out: SERT (binding Ki)
pKi: −log10 of the molar value.

Some compounds with recorded pKi:
[[record]]
compound = "CN(C)C1CCC(c2c[nH]c3c(Cl)cccc23)C1 (stereo not shown)"
outcomemeasure = "pKi"
measuredvalue = "> 9.00"

[[record]]
compound = "CCn1cc(C2CCC(N(C)Cc3ccccc3)C2)c2cc(C#N)ccc21 (stereo not shown)"
outcomemeasure = "pKi"
measuredvalue = "8.00 to 9.00"

[[record]]
compound = "CN(C)[C@@H]1CC[C@@H](c2c[nH]c3ccc(C#N)cc23)C1"
outcomemeasure = "pKi"
measuredvalue = "> 9.00"


# lookup: pKi of CN(Cc1ccccc1)C1CCC(c2cn(C)c3ccc(C#N)cc23)C1 (stereo not shown) > 9.00

// next record CN(C)C1CCC(c2c[nH]c3cccc(F)c23)C1 (stereo not shown) 7.00 to 8.00

// next record CN(C)C1CCC(c2c[nH]c3c(F)cccc23)C1 (stereo not shown) 8.00 to 9.00

// next record CN(CCc1ccccc1)C1CCC(c2c[nH]c3ccc(C#N)cc23)C1 (stereo not shown) 8.00 to 9.00

====

Recorded pKi values for a group of molecules are listed next.
# targetUnderTest: human serotonin transporters (Homo sapiens, UniProt P31645)
# Construct: expressed in transfected cells
# experimentDescription: Serotonin Transporter Binding Assay ([3H]-citalopram displacement, HEK-hSERT cell membranes)
# assayConditions: HEK-hSERT membranes, 1 nM [3H]-citalopram, 1 hr at 25° C.; read-out: SERT (binding Ki)
pKi: −log10 of the molar value.

Some molecules with recorded pKi:
[[record]]
molecule = "CN(C)C1CCC(c2c[nH]c3ccc(Cl)cc23)C1 (stereo not drawn)"
outcomemeasure = "pKi"
measuredvalue = "8.00 to 9.00"

[[record]]
molecule = "CN(C)C1CCC(c2c[nH]c3c(Br)cccc23)C1 (stereo not drawn)"
outcomemeasure = "pKi"
measuredvalue = "8.00 to 9.00"

[[record]]
molecule = "N#Cc1ccc2[nH]cc([C@H]3CCC(NC4CC[C@H](c5c[nH]c6ccc(C#N)cc56)C4)C3)c2c1 (stereo partly drawn)"
outcomemeasure = "pKi"
measuredvalue = "8.00 to 9.00"

[[record]]
molecule = "Cn1cc(C2CCC(N3CCCCC3)C2)c2cc(C#N)ccc21 (stereo not drawn)"
outcomemeasure = "pKi"
measuredvalue = "> 9.00"

[[record]]
molecule = "CN(C)[C@H]1CC[C@@H](c2c[nH]c3ccc(F)cc23)C1"
outcomemeasure = "pKi"
measuredvalue = "8.00 to 9.00"


# lookup: pKi of N#Cc1ccc2[nH]cc(C3CCC(NCCc4ccccc4)C3)c2c1 (stereo not drawn) 8.00 to 9.00

// next record N#Cc1ccc2[nH]cc(C3CCC(N4CCc5ccccc5C4)C3)c2c1 (stereo not drawn) 8.00 to 9.00
